Hey, just so you know, these numbers are from patent US20070213283A1.

Assay system S. aureus Smith ATCC 13709; read-out recorded as MIC.

smiles str | MIC
CC[C@H]1OC(=O)[C@H](C)[C@@H](O[C@H]2C[C@@](C)(OC)[C@@H](OC(=O)CCOCCNc3ccc4c(c3)c(=O)c(C(=O)O)cn4C3CC3)[C@H](C)O2)[C@@H](C)[C@@H](O[C@@H]2O[C@H](C)C[C@H](N(C)C)[C@H]2O)[C@](C)(O)C[C@@H](C)CN(C)[C@H](C)[C@@H](O)[C@]1(C)O | ≤ 1 µg/mL
CC[C@@H]1OC(=O)[C@H](C)[C@H](O[C@@H]2C[C@](C)(O)[C@H](OC(=O)CCNCCSc3ccc4c(c3)c(=O)c(C(=O)OC)cn4CC)[C@H](C)O2)[C@@H](C)[C@H](O[C@@H]2O[C@H](C)C[C@H](N(C)C)[C@@H]2O)[C@](C)(OC)C[C@H](C)C(=O)[C@H](C)[C@@H](O)[C@]1(C)O | ≤ 1 µg/mL

###

Assay system S. pneumoniae SP030; read-out recorded as MIC.
endpoint name: MIC

smiles str | endpoint result
CC[C@@H]1OC(=O)[C@H](C)[C@H](O[C@@H]2C[C@@](C)(OC)[C@H](OC(=O)CCOCCOc3cc4c(=O)c(C(=O)O)cn(C5CC5)c4cc3Cl)[C@H](C)O2)[C@@H](C)[C@H](O[C@@H]2O[C@H](C)C[C@H](N(C)C)[C@@H]2O)[C@@](C)(OC)C[C@H](C)C(=O)[C@H](C)[C@@H](O)[C@]1(C)O | ≤ 1 µg/mL
CC[C@H]1OC(=O)[C@H](C)[C@@H](O[C@H]2C[C@@](C)(OC)[C@@H](OC(=O)CCOCCOc3ccc4c(c3)c(=O)c(C(=O)O)cn4C3CC3)[C@H](C)O2)[C@H](C)[C@@H](O[C@@H]2O[C@H](C)C[C@H](N(C)C)[C@@H]2O)[C@](C)(O)C[C@@H](C)CN(C)[C@H](C)[C@@H](O)[C@]1(C)O | ≤ 1 µg/mL

###

Where a name gives a salt, the structure may show the parent alone.
Assay system S. aureus Smith ATCC 13709; read-out recorded as MIC.

compound | target or system | MIC
CC[C@@H]1OC(=O)[C@H](C)[C@H](O[C@@H]2O[C@H](C)[C@H](OC(=O)CCNCCSc3ccc4c(c3)c(=O)c(C(=O)O)cn4CC)[C@@](C)(OC)O2)[C@@H](C)[C@H](O[C@H]2O[C@@H](C)C[C@@H](N(C)C)[C@H]2O)[C@](C)(OC)C[C@H](C)C(=O)[C@@H](C)[C@@H]2NC(=O)O[C@@]12C [Example 9, bis trifluoroacetate salt] | S. aureus Smith ATCC 13709 | ≤ 1 µg/mL
CC[C@H]1OC(=O)[C@H](C)[C@@H](OC2C[C@@](C)(OC)[C@@H](OC(=O)CCOCCOc3cc4c(=O)c(C(=O)O)cn(C5CC5)c4cc3Cl)[C@H](C)O2)[C@H](C)[C@@H](O[C@@H]2O[C@H](C)C[C@H](N(C)C)[C@H]2O)[C@](C)(O)C[C@@H](C)CN(C)[C@H](C)[C@@H](OC)[C@]1(C)O (stereo partly drawn) | S. aureus Smith ATCC 13709 | ≤ 1 µg/mL
CC[C@@H]1OC(=O)[C@H](C)[C@H](O[C@@H]2C[C@](C)(OC)[C@H](OC(=O)CCNCCOc3cc4c5c(c3)c(=O)c(C(=O)O)cn5CCC4)[C@H](C)O2)[C@@H](C)[C@H](O[C@@H]2O[C@H](C)C[C@H](N(C)C)[C@@H]2O)[C@](C)(OC)C[C@H](C)C(=O)[C@H](C)[C@@H](O)[C@]1(C)O [Example 13, bis trifluoroacetate salt] | S. aureus Smith ATCC 13709 | ≤ 1 µg/mL
